# Tested on: Plasmodium berghei
# assay-method-text: Luciferase/luciferin-expressing antifolate-resistant parasites were used to infect a culture of HepG2 cells that were pre-incubated with compounds. Infected hepatocytes emit light due to the luciferase reaction. Assay results are presented as the percent inhibition of light emission compared to control. […]
# Type: functional
# reported-conditions: sporozoite, read-out: LUCIFERASE INFECTION ASSAY - IC90
Item-by-item account of IC90

Reference set, count: 2
COc1ccc(Cl)cc1NC(=O)C(C)NCC(c1ccccc1)c1c[nH]c2ccccc12 (stereo not drawn) : > 10 µM
COC(=O)c1cc(OC)c(OC)cc1NC(=O)c1ccc(-c2cccc(Br)c2)nc1C : > 10 µM

Next up:
In plain terms, CC(C)(C)c1ccc(CSc2nncn2-c2ccc(OCc3ccccc3)cc2)cc1 has a documented IC90 of > 7.68 µM
